Test system: SF-268 CNS
Assay: NCI-60 one-dose screen, 48 h
Settings: 10 µM unless noted
Compounds without any hit were thinned out: in the full panel of roughly 83,000, 20% have a hit. Active and inactive are the calls of the source. The calls were made as follows: active = growth percent below 10; inactive = the rest.
Classes used: YES for active, NO for inactive

- molecule: "Cc1cccc2c1S/C(=C/c1ccc([N+](=O)[O-])cc1)C2=O"
  labelValue: "NO"
- molecule: "O=[N+]([O-])c1ccccc1NCSc1ccc(Cl)cc1"
  labelValue: "NO"
- molecule: "O=C(N/N=C/c1c(Cl)cccc1Cl)c1ccc(C(F)(F)F)nc1Nc1cccc(C(F)(F)F)c1"
  labelValue: "YES"
- molecule: "CCCCCCCCCCCCCCCCCC1OCC(COC(=O)O[C@]2(CC)C(=O)OCc3c2cc2n(c3=O)Cc3cc4ccccc4nc3-2)O1 (stereo not given in full)"
  labelValue: "NO"
- molecule: "C=C(C)C1CCC2(C)OC2C1 (stereo not given)"
  labelValue: "NO"

---

Test system: MCF7 breast
Test: NCI-60 one-dose screen, 48 h (100 = growth as untreated, 0 = no growth, -100 = all killed)
Settings: 10 µM unless noted
About 83,000 compounds went through this panel and 20% of them were active in at least one assay; those are over-represented in the sample as a whole.
Under this convention, Yes denotes growth strictly below 50% and No denotes growth at or above 50%.

- compound: "CN(C)CCS(=O)(=O)Nc1cc(-c2ccc3ncc(C#N)c(Nc4ccc(F)c(Cl)c4)c3c2)cnc1Cl"
  assaySystem: "MCF7 breast"
  labelValue: "Yes"
- compound: "COc1cc(C(=O)/C=C/c2c(Cl)nc3sccn23)cc(OC)c1OC"
  assaySystem: "MCF7 breast"
  labelValue: "No"
- compound: "N#C/C(=C\\c1ccc(F)cc1)n1nc2cccc(F)c2n1"
  assaySystem: "MCF7 breast"
  labelValue: "Yes"
- compound: "C=C1C(=O)O[C@H]2[C@H]1CC/C(COC(=O)CCC(=O)NCCOCCOCC(=O)Nc1ccc(OC)c(C(N)=O)c1O)=C\\CC[C@@]1(C)O[C@@H]21"
  assaySystem: "MCF7 breast"
  labelValue: "No"
- compound: "Cn1cc(C(=O)c2nc(-c3cn(C)c4ccc(F)cc34)no2)c2cc(F)ccc21"
  assaySystem: "MCF7 breast"
  labelValue: "Yes"

---

Tested on: SN12C renal
Assay: NCI-60 one-dose screen, 48 h (100 = growth as untreated, 0 = no growth, -100 = all killed)
Conditions: 10 µM unless noted
Description: Growth inhibition of the SN12C human tumor cell line is measured as a screen for anti-cancer activity. Cells are grown in 96 well plates and exposed to the test compound for 48 hours. Compounds are tested at a single concentration, which is 10^-5 M for most compounds. The reported endpoint is percent growth (GI% or GIPRCNT), where numbers from 0 - 100% represent growth inhibition, and numbers from -100% - 0 represent cell death. For example, a value of 40 represents 60% growth inhibition. […]
About 83,000 compounds went through this panel and 20% of them were active in at least one assay; those are over-represented in the sample as a whole.
Attribute: growth
quantity: growth (%)

- molecule: "c1ccc2c(-c3nc(-c4c[nH]c5ccncc45)cs3)c[nH]c2c1"
  measuredValue: 68.9
- molecule: "COc1nc2ccc(C)cc2cc1-c1nc2c(cnn2-c2ccccc2)c(=O)[nH]1"
  measuredValue: 98.3
- molecule: "CNc1nc2c(s1)C(c1cccc(F)c1)CC(=O)N2 (stereo not given)"
  measuredValue: 95.2
- molecule: "CSc1ncccc1C(=O)OCC(=O)Nc1oc(C)c2c(C)n[nH]c(=O)c12"
  measuredValue: 103
- molecule: "FC(F)(F)c1cc(Nc2ccc3c(OCCCN4CCOCC4)cccc3n2)ccc1Cl"
  measuredValue: 66.9

---

Tested on: MDA-MB-435 melanoma
Assay: NCI-60 one-dose screen, 48 h (100 = growth as untreated, 0 = no growth, -100 = all killed)
Conditions: 10 µM unless noted
This is part of a sample that, as a whole, favours compounds with a hit. Of some 83,000 tested, about 20% had one in any assay.

- compound: "CC(=O)CC(c1ccccc1)c1c(C)[nH]c2ccccc12 (centres undefined)"
  growth, %: 100
- compound: "COc1cc(C(=O)N/N=C/c2cc3cc(OCc4ccccc4)ccc3nc2OC)cc(OC)c1OC"
  growth, %: 88.3
- compound: "CC(=O)CC[C@H]1C(=O)N[C@@H](C(C)C)C(=O)N[C@@H](Cc2cc(O)cc(F)c2)C(=O)N2CCC[C@H](N2)C(=O)O[C@H](/C(C)=C/C=C/C(=O)OC(C)(C)C)C/C=C/C=C/[C@H](O)[C@H](C)[C@H]1O"
  growth, %: 43
- compound: "COc1ccc2c(c1OC)C(=O)O[C@H]2[C@H]1c2c(cc3c(c2OC)OCO3)CCN1C"
  growth, %: 54.1

---

Tested on: SN12C renal
Assay: NCI-60 one-dose screen, 48 h
Conditions: 10 µM unless noted
About 83,000 compounds went through this panel and 20% of them were active in at least one assay; those are over-represented in the sample as a whole. Activity calls are given as the source filed them. Rule for the calls: active = growth percent below 10; inactive = the rest.
Classes used: TRUE (active), FALSE (inactive)

- compound: "CCCCCCNC(=O)Oc1ccc(/C(=C(\\C)c2ccc(Cl)cc2)c2ccc(OCCN3CCCCC3)cc2)cc1"
  labelValue: "FALSE"
- compound: "Cc1ccc2sc3c(NCCCN)nc4ccccc4c3c(=O)c2c1"
  labelValue: "FALSE"
- compound: "COc1ccc(-c2[nH]ncc2-c2cc3c(c(OC)c2)OCC(=O)N3)cc1"
  labelValue: "FALSE"
- compound: "Cc1ccc(C(=O)NCCNc2nccc(-c3c(-c4cccc(F)c4)nc4sccn34)n2)cc1"
  labelValue: "FALSE"
- compound: "CCOC(=O)C1=C(N)Oc2c(sc3c(C)cccc23)C1c1ccc(F)cc1 (stereo unspecified)"
  labelValue: "FALSE"
- compound: "COc1cc(C(=O)/C=C/c2ccc(OCCCCCC[P+](c3ccccc3)(c3ccccc3)c3ccccc3)cc2)cc(OC)c1OC"
  labelValue: "TRUE"
- compound: "O=c1n(Cc2ccc3ccccc3c2)ccn1Cc1ccc2ccccc2c1"
  labelValue: "FALSE"
- compound: "COc1ccc2sc3c(NCCCNCCO)nc4ccccc4c3c(=O)c2c1"
  labelValue: "FALSE"
- compound: "Cn1cc(C(=O)c2nc(-c3cn(C)c4ccc(F)cc34)no2)c2cc(F)ccc21"
  labelValue: "FALSE"
- compound: "Cc1cc2nc3cc(C)c(N)cc3[n+](-c3ccccc3)c2cc1N"
  labelValue: "FALSE"
- compound: "Cc1onc2c(-c3ccccc3)n[nH]c(=O)c12"
  labelValue: "FALSE"
- compound: "CCOC(=O)c1c2c(n(-c3ccc(C#N)cc3)c1-c1ccccc1)C=CCC2"
  labelValue: "FALSE"
- compound: "COc1c(C2CC(=O)Nc3c2c(C)nn3-c2nc3ccccc3[nH]2)cc2c(c1OC)OCO2 (stereo unspecified)"
  labelValue: "FALSE"
- compound: "O=C1/C(=C/c2ccccc2[N+](=O)[O-])Oc2ccc(O)c(O)c21"
  labelValue: "FALSE"
- compound: "COc1ccc(-c2csc(NC(=O)N3CCN(c4cc5c(cc4F)c(=O)c(C(=O)O)cn5C4CC4)CC3)n2)cc1"
  labelValue: "TRUE"
- compound: "CSc1nc2ccc(C)cc2cc1/C=N/O"
  labelValue: "FALSE"
- compound: "COc1ccc(-c2cc(-c3ccc(Cl)cc3)c(C#N)c(=O)n2CCCCCC(=O)Nc2ccccc2N)cc1"
  labelValue: "FALSE"
- compound: "CC/C=C\\C[C@@H]1C/C=C2/C(=O)C=C[C@H]2C/C=C\\CCCC(=O)O1"
  labelValue: "TRUE"
- compound: "Cc1cccc(NC2=C(Cl)C(=O)c3nc(C)ccc3C2=O)c1"
  labelValue: "TRUE"
- compound: "COc1ccc(/C=C(/C#N)n2nnc3cccc(F)c32)cc1"
  labelValue: "FALSE"
- compound: "O=c1c2cc(F)ccc2sc2c(N3CCNCC3)nc3ccccc3c12"
  labelValue: "FALSE"

---

Test system: HCT-116 colon
Assay: NCI-60 one-dose screen, 48 h
Conditions: 10 µM unless noted
Compounds without any hit were thinned out: in the full panel of roughly 83,000, 20% have a hit. Calls of active or inactive are those of the source. Rule for the calls: active = growth percent below 10; inactive = the rest.
Classes used: T (active), F (inactive)

- molecule: "NC1=C(c2nn[nH]n2)C(c2ccccc2Cl)c2ccc3ccccc3c2O1 (stereo not given)"
  labelValue: "F"
- molecule: "O=C(Cc1ccc2c(c1)OCCO2)Nc1nc2ccc(F)cc2s1"
  labelValue: "F"
- molecule: "COc1cc(CNS(=O)(=O)c2ccc(C)cc2)ccc1OCc1cn(-c2ccccc2)nn1"
  labelValue: "F"
- molecule: "O=c1ccn(Cc2cn(-c3c4ccccc4nc4ccccc34)nn2)c(=O)[nH]1"
  labelValue: "F"
- molecule: "O=C(Nc1ccc(-c2nc(-c3cccc(OCCN4CCOCC4)c3)c(-c3ccnc(Br)c3)[nH]2)cc1)c1ccccc1"
  labelValue: "T"

Ref: PubChem BioAssay (NCI)
